Test system: Candida glabrata
assay overview: conventional broth dilution in vitro antifungal test, Candida glabrata
Format: cell-based
experimental setup: Table R (MFCs), 9 strains
We begin with a simple list: items and their reported percentage of strains with MFCs ≤ 1 mcg/mL.
metric name: percentage of strains with MFCs ≤ 1 mcg/mL (%)

compound	assay target	meas value
CCC(C(C)O)n1ncn(-c2ccc(N3CCN(c4ccc(OCC5COC(Cn6cncn6)(c6ccc(F)cc6F)C5)cc4)CC3)cc2)c1=O (stereo not shown) [drawing 29]	Candida glabrata	22
CCC(C(C)O)n1ncn(-c2ccc(N3CCN(c4ccc(OCC5COC(Cn6cncn6)(c6ccc(F)cc6F)C5)cc4)CC3)cc2)c1=O (stereo not shown) [drawing 30]	Candida glabrata	22
OC(Cn1cncn1)(Cn1cncn1)c1ccc(F)cc1F [FLZ, fluconazole, reference compound]	Candida glabrata	0
CCC(C(C)O)n1ncn(-c2ccc(N3CCN(c4ccc(OCC5COC(Cn6cncn6)(c6ccc(F)cc6F)C5)cc4)CC3)cc2)c1=O (stereo not shown) [drawing 31]	Candida glabrata	22
